Assay: Thermal stability of the compound assessed as compound isomerization at 80 degC after 20 hrs
Assay type: physicochemical

>  <structure as smiles>
CCN(CC)CC.CCN(CC)CC.C[n+]1c(/C=C/c2ccccc2)n([C@@H]2O[C@H](COP(=O)([O-])OP(=O)(O)OP(=O)(O)OC[C@H]3O[C@@H](n4cnc5c(=O)[nH]c(N)nc54)[C@H](O)[C@@H]3O)[C@@H](O)[C@H]2O)c2nc(N)[nH]c(=O)c21

>  <Stability>
Stable

$$$$
>  <structure as smiles>
CCN(CC)CC.CCN(CC)CC.C[n+]1c(/C=C/c2ccc3ccccc3c2)n([C@@H]2O[C@H](COP(=O)([O-])OP(=O)(O)OP(=O)(O)OC[C@H]3O[C@@H](n4cnc5c(=O)[nH]c(N)nc54)[C@H](O)[C@@H]3O)[C@@H](O)[C@H]2O)c2nc(N)[nH]c(=O)c21

>  <Stability>
Stable

$$$$
